measuredTarget: Mushroom tyrosinase (Agaricus bisporus, UniProt O42713+Q00024+C7FF04+C7FF05)
experimentalDetails: Inhibition of Agaricus bisporus tyrosinase using L-dopa as substrate preincubated with compound for 20 mins followed by substrate addition measured after 5 mins by absorbance based assay
The following compounds are shown together with reported IC50 values.

Look over these answered cases.
{"moleculeSmiles": "COc1ccc(CCC(=O)c2ccc(O)cc2O)cc1OC", "IC50": "> 10 µM"}
{"moleculeSmiles": "COc1ccc(C(=O)CCc2ccc(OC)cc2OC)cc1", "IC50": "> 10 µM"}
{"moleculeSmiles": "COc1ccc(C(=O)CCc2ccccc2O)c(O)c1", "IC50": "> 10 µM"}
{"moleculeSmiles": "O=C(CCc1cccc([N+](=O)[O-])c1)c1ccc(O)cc1O", "IC50": "> 10 µM"}

Lab note: Mushroom tyrosinase (Agaricus bisporus, UniProt O42713+Q00024+C7FF04+C7FF05) assay, enter IC50 for "Cc1ccccc1C(=O)CCc1ccc(O)cc1O" here
0.239 µM

Lab note: Mushroom tyrosinase (Agaricus bisporus, UniProt O42713+Q00024+C7FF04+C7FF05) assay, enter IC50 for "COc1ccc(CCC(=O)c2ccc(O)cc2O)cc1O" here
> 10 µM

Lab note: Mushroom tyrosinase (Agaricus bisporus, UniProt O42713+Q00024+C7FF04+C7FF05) assay, enter IC50 for "O=C(CCc1ccc(O)cc1O)c1ccc(-c2ccccc2)cc1" here
1.431 µM

----------
The following molecules are shown together with reported IC50 values.
measuredTarget: Mushroom tyrosinase (Agaricus bisporus, UniProt O42713+Q00024+C7FF04+C7FF05)
experimentalDetails: Inhibition of Agaricus bisporus tyrosinase using L-dopa as substrate preincubated with compound for 20 mins followed by substrate addition measured after 5 mins by absorbance based assay
Write it as a number; the unit µM goes unstated.

{"moleculeSmiles": "O=C(CCc1ccc(O)cc1O)c1ccc(Cl)cc1Cl", "measuredTarget": "Mushroom tyrosinase (Agaricus bisporus, UniProt O42713+Q00024+C7FF04+C7FF05)", "testValue": 0.189}
{"moleculeSmiles": "COc1ccc(C(=O)CCc2ccc(O)cc2O)cc1", "measuredTarget": "Mushroom tyrosinase (Agaricus bisporus, UniProt O42713+Q00024+C7FF04+C7FF05)", "testValue": 0.171}

Attention now shifts to the item below.
For "O=C(CCc1ccc(O)cc1O)c1ccccc1" , write its IC50.
0.625

----------
The following compounds are shown together with reported IC50 values.
measuredTarget: Mushroom tyrosinase (Agaricus bisporus, UniProt O42713+Q00024+C7FF04+C7FF05)
experimentalDetails: Inhibition of Agaricus bisporus tyrosinase using L-tyrosine as substrate preincubated with compound for 20 mins followed by substrate addition measured after 10 mins by absorbance based assay
Write it as a number; the unit µM goes unstated.

Look over these answered cases.
{"moleculeSmiles": "Cc1cccc(C(=O)CCc2ccc(O)cc2O)c1", "assayReadout": "IC50", "valueUnit": "µM", "testValue": 0.133}
{"moleculeSmiles": "O=C(CCc1ccc(O)cc1O)c1ccc(O)cc1", "assayReadout": "IC50", "valueUnit": "µM", "testValue": 0.072}

Attention now shifts to the item below.
Lab note: Mushroom tyrosinase (Agaricus bisporus, UniProt O42713+Q00024+C7FF04+C7FF05) assay, enter IC50 for "Cc1ccccc1C(=O)CCc1ccc(O)cc1O" here
0.123
